Data provenance: patent US20200377505A1

For each record, write down the corresponding inhibition at 5 µM.
Biological target: human TRPC5 (Homo sapiens)
Construct: expressed in transfected cells; host or cells: HEK 293
Test: TRPC5 fluorescence-based assay (Ca2+ flux assay in FLIPR format), cells overexpressing TRPC5
Assay type: cell-based
Conditions: 5 μM of test compound, following Carbachol stimulation
Give bare numbers, in %.

CCn1c(Cc2ccc(OC)c(OC)c2)nc2ccccc21: 59

# batch: return inhibition at 5 µM for each of the 6 compounds below
1. CCCCn1c(NCc2nc3ccccc3n2C)nc2ccccc21
2. COc1ccccc1NC(=O)Cn1c(C)nc2ccccc21
3. CCCn1c(NCc2ccccc2Cl)nc2ccccc21
4. CC(NCc1nc2ccccc2n1C)C12CC3CC(CC(C3)C1)C2 (stereo not drawn)
5. Cn1c(=O)c2c(ncn2CC(=O)OCCCC(c2ccc(F)cc2)c2ccc(F)cc2)n(C)c1=O
6. CCn1c(NCc2cccc(Br)c2)nc2ccccc21

Given back:
[59.5, 72.7, 46, 55.2, 60, 39.9]

----------
Biological target: human TRPC5 (Homo sapiens)
Construct: expressed in transfected cells; host or cells: HEK 293
Assay: TRPC5 fluorescence-based assay (Ca2+ flux assay in FLIPR format), cells overexpressing TRPC5
Type: cell-based
Settings: 5 μM of test compound, following Carbachol stimulation
measure.name: inhibition at 5 µM
Write the numeric value and append its unit.

Below, each entry is followed by its recorded inhibition at 5 µM result.
CC(C)(C)NC(=O)Cn1c(NCc2ccccc2)nc2ccccc21: 51%
c1ccc(Cc2nc3ccccc3n2CCOc2ccccc2)cc1: 36.7%

# batch: return inhibition at 5 µM for each of the 6 molecules below
1. COc1ccc(OCc2nc3ccccc3n2CCc2ccccc2)cc1
2. C=C(C)Cn1c(-c2ccc(N(C)C)cc2)nc2ccccc21
3. c1csc(CNc2nc3ccccc3n2CCN2CCCCC2)c1
4. C=CCn1c(NCc2cccs2)nc2ccccc21
5. Cc1cccc(OCCn2c(Cc3ccccc3)nc3ccccc32)c1
6. CCN(CC)CCn1c(NCc2ccc(Cl)cc2)nc2ccccc21

Given back:
1. 38.3%
2. 45%
3. 64.4%
4. 50.7%
5. 56.4%
6. 62%

----------
Biological target: human TRPC6 (Homo sapiens)
Construct: expressed in transfected cells; host or cells: HEK 293
Sequence (Q9Y210 whole entry): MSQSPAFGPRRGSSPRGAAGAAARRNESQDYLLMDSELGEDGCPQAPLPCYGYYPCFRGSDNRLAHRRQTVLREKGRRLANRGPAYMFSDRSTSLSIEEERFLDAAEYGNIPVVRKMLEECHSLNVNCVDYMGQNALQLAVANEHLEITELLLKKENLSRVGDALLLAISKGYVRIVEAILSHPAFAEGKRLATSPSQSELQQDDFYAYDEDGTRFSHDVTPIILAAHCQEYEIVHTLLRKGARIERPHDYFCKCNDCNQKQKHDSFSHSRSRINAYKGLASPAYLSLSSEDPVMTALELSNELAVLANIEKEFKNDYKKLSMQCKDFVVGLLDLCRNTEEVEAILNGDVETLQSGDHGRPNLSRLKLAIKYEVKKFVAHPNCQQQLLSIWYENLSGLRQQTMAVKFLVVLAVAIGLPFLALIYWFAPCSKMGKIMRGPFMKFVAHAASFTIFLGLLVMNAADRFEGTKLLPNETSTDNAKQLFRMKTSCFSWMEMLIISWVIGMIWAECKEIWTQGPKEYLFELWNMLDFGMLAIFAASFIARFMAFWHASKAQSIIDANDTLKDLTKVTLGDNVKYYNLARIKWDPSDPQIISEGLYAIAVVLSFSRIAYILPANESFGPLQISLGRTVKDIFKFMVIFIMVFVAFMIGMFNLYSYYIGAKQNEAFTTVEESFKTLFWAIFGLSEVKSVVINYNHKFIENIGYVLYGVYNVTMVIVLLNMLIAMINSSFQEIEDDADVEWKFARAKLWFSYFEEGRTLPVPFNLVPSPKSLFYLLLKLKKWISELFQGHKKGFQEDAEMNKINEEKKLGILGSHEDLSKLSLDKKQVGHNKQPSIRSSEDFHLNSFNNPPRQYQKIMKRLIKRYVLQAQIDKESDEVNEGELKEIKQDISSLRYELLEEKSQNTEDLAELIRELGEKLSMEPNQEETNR
Test: TRPC6 fluorescence-based assay (Ca2+ flux assay in FLIPR format), cells overexpressing TRPC6
Type: cell-based
Settings: 5 μM of test compound, following Carbachol stimulation
For each record, write down the corresponding inhibition at 5 µM.
Give bare numbers, in %.

Below, each entry is followed by its recorded inhibition at 5 µM result.
CCN(CC)c1ccc(CNc2nc3ccccc3n2CCN2CCCCC2)cc1: 65.7
CCCn1c(NCc2c[nH]c3ccccc23)nc2ccccc21: 54.7
Cc1ccc(Cn2c(C(C)(C)C)nc3ccccc32)cc1: 27.7

Asked: State its inhibition at 5 µM for this compound: "Cc1ccccc1OCCn1c(C)nc2ccccc21"
Given back: 76.2

----------
For each record, write down the corresponding inhibition at 5 µM.
Molecular target: human TRPC5 (Homo sapiens)
Construct: expressed in transfected cells; host or cells: HEK 293
Sequence (Q9UL62 1-973): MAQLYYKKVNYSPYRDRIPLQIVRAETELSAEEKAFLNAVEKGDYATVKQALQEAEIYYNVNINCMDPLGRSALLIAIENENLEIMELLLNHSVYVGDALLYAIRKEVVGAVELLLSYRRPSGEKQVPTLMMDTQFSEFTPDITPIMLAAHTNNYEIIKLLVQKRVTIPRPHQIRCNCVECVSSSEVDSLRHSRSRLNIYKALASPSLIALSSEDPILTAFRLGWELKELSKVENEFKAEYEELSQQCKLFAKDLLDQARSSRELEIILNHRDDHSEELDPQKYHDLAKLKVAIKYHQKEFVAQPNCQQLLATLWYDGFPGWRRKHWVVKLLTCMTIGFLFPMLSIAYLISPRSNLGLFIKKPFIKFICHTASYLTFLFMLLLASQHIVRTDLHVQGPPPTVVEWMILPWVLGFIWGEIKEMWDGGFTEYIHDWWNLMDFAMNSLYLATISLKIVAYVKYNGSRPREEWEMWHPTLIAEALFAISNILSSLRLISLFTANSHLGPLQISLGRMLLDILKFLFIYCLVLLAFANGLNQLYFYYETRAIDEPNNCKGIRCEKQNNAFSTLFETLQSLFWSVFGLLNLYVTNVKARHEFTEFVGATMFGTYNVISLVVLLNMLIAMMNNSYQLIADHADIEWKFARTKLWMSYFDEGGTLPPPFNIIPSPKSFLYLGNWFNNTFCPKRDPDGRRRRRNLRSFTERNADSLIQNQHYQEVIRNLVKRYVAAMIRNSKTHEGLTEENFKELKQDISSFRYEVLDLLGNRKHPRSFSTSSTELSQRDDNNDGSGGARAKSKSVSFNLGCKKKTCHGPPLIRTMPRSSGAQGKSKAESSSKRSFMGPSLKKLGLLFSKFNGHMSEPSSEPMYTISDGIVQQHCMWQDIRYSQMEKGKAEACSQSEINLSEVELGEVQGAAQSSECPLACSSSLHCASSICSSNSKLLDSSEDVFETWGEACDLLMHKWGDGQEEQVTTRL
Experiment: TRPC5 fluorescence-based assay (Ca2+ flux assay in FLIPR format), cells overexpressing TRPC5
Assay type: cell-based
Details: 5 μM of test compound, following Carbachol stimulation
Give bare numbers, in %.

Below, each entry is followed by its recorded inhibition at 5 µM result.
Cc1nc2ccccc2n1CCNC(=O)c1ccccc1SCc1ccsc1: 77.7
O=C(Cn1c(NCCCO)nc2ccccc21)C12CC3CC(CC(C3)C1)C2: 58.2
CC(C)(C)C(=O)NCCc1nc2ccccc2n1Cc1ccc(Cl)cc1: 38.9
Clc1ccc(Cn2cnc3ccccc32)c(Cl)c1: 63.5

# batch: return inhibition at 5 µM for each of the 3 molecules below
1. Nc1ccc(-c2nc3ccccc3n2CCCOc2ccccc2)cc1
2. Cc1ccccc1OCCn1c(C)nc2ccccc21
3. COc1ccc(CNc2nc3ccccc3n2C)c(OC)c1

Given back:
1. 38.6
2. 70
3. 41.3

----------
For each record, write down the corresponding inhibition at 5 µM.
Biological target: human TRPC6 (Homo sapiens)
Construct: expressed in transfected cells; host or cells: HEK 293
Assay: TRPC6 fluorescence-based assay (Ca2+ flux assay in FLIPR format), cells overexpressing TRPC6
Format: cell-based
Conditions: 5 μM of test compound, following Carbachol stimulation
One number for each entry, in %.

CCn1c(NC2CCCCC2)nc2ccccc21: 9.58
Brc1cccc(CNc2nc3ccccc3n2CCN2CCOCC2)c1: 18.5
COCc1ccccc1Cn1cnc2ccccc21: 83.5

In the following, a different molecule is considered.
Asked: State its inhibition at 5 µM for this molecule: COc1ccc(Cc2nc3ccccc3n2C(C)c2ccccc2)cc1 (stereo not shown)
Given back: 45

----------
Biological target: human TRPC5 (Homo sapiens, UniProt Q9UL62)
Construct: expressed in transfected cells; host or cells: HEK 293
Sequence (Q9UL62 1-973): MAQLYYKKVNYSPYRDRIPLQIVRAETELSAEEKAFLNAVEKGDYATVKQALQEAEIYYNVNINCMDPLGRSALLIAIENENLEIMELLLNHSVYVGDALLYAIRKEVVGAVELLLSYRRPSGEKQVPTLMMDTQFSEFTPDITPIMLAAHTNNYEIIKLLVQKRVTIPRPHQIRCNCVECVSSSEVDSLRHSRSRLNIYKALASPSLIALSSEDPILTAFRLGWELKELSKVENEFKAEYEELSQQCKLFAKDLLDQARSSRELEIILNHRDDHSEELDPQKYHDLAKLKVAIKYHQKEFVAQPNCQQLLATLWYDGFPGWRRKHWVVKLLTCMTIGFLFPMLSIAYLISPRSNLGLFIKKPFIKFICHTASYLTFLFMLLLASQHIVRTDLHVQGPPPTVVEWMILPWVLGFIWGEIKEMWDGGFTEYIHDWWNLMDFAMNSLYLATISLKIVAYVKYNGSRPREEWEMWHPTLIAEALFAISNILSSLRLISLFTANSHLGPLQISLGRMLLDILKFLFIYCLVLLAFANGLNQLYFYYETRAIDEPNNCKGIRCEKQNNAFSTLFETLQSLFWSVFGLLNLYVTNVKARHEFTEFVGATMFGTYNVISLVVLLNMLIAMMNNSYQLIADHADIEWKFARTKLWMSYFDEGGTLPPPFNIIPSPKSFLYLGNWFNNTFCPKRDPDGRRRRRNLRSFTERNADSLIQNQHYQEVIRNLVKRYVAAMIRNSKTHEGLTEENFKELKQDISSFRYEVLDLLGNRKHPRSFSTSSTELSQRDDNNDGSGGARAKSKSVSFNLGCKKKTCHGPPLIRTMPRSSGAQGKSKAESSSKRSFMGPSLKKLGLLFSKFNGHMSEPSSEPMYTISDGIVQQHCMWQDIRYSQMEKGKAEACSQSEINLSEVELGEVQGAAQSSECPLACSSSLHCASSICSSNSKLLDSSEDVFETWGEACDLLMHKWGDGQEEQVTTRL
Assay: TRPC5 fluorescence-based assay (Ca2+ flux assay in FLIPR format), cells overexpressing TRPC5
Format: cell-based
Details: 5 μM of test compound, following Carbachol stimulation
For each record, write down the corresponding inhibition at 5 µM.
Numbers only, in %.

# batch: return inhibition at 5 µM for each of the 7 compounds below
1. COc1ccc(Cc2nc3ccccc3n2C(C)c2ccccc2)cc1 (stereo not shown)
2. CCC(CC)c1nc2ccccc2n1Cc1ccccc1
3. CC(C)n1c(NCc2ccccc2)nc2ccccc21
4. Brc1cccc(CNc2nc3ccccc3n2CCN2CCOCC2)c1
5. CCCn1c(NCc2ccco2)nc2ccccc21
6. CC(C)c1ccc(CNc2nc3ccccc3n2C)cc1
7. COCCn1c(SCC(=O)Nc2cccc3ncccc23)nc2ccccc21

Given back:
1. 51
2. 34.9
3. 48.4
4. 45.8
5. 40.7
6. 50
7. 59.1
